- Test system: HCV subgenomic replicon RNA of the Con1 strain (genotype 1b)
- protocol-description: Luciferase assay in Con1 LUN Sb #26 replicon cells
- Format: cell-based, hepatitis C virus
- test-context: Hepatitis C virus; Con1 LUN Sb #26, subgenome, Con1 (1b), 72 h; read-out: EC50, fifty percent effective concentration based on the inhibition of HCV replication
assay-endpoint: pEC50
// pEC50 here means minus log10 of the molar concentration (mol/L)

Kindly note the recorded pEC50 for CCCCCCCCOC(=O)/C=C/c1ccc(O)c(O)c1 , which is 6.00

###

Listed compounds paired with reported CC50 at 72 h
- protocol-description: Cytotoxicity (MTS assay) in Huh7/Rep-Feo replicon cells
- Type: cell-based
- test-context: human, Huh7/Rep-Feo replicon cells, Huh7/Rep-Feo cells, MTS, read-out: CC50, fifty percent cytotoxicity concentration based on the reduction in cell viability
// return numeric value only (unit: µM, not printed)

Answered cases to consult:
CCCCCCCCOC(=O)C=Cc1cc(O)c(O)c(O)c1 | 59.8
CCCCCCCCOC(=O)/C=C/c1ccc(O)c(O)c1 | 71.7
CCCCCCCCOC(=O)/C=C/c1ccc(OC)c(O)c1 | 59.2

// moving on: another record for CC50 at 72 h
Record summary for CCCCCCCCOC(=O)/C=C/c1ccc(O)c(OC)c1 : reported CC50 at 72 h = 60.3

###

Quick list: CC50 per entry.
- Test system: Huh7/Rep-Feo cells
- protocol-description: Cytotoxicity (MTS assay) in Huh7/Rep-Feo replicon cells
- Type: cell-based
- test-context: Huh7/Rep-Feo cells, 72 h, MTS; read-out: CC50, fifty percent cytotoxicity concentration based on the reduction in cell viability
Entry rule: numbers only, all in µM.

COC(=O)CCc1ccc(O)c(O)c1 [Compound 12, Dihydrocaffeic acid methyl ester] | 141

Let us move to another entry and its CC50.
The compound COC(=O)/C=C/c1ccc(O)c(O)c1 [Compound 7, caffeic acid methyl ester] showed CC50 equal to 122

###

- System: HCV subgenomic replicon RNA of genotype 1b strain N (Huh7/Rep-Feo cells)
- protocol-description: Luciferase assay in HCV subgenomic replicon cell line Huh7/Rep-Feo
- Type: cell-based, hepatitis C virus
- test-context: Huh7/Rep-Feo, strain N (1b)
- Method: The Huh7/Rep-Feo cell line, which harbors the subgenomic replicon RNA composed of HCV IRES, the gene of the fusion protein consisting of neomycin phosphotransferase and firefly luciferase, EMCV IRES and a nonstructural gene of genotype 1b strain N in order in Huh7 cell line, was previously established. […] The replicon cells were seeded at 2×10^4 cells per well in a 48-well plate 24 h before treatment. […] The resulting luminescence was detected by a Luminescencer-JNR AB-2100 (ATTO, Tokyo, Japan).
The compounds listed here are annotated with their SI, selectivity index (CC50/EC50).
Reply with just the number.

Recorded SI, selectivity index (CC50/EC50), per entry:
CCCCCCCCOC(=O)/C=C/c1ccc(O)c(O)c1 | 26.6
CCCCCCCCOC(=O)/C=C/c1ccc(O)c(OC)c1 | 5.9
CCCCCCCCOC(=O)/C=C/c1ccc(OC)c(O)c1 | 3

Next:
Lab note: CCCCCCCCOC(=O)C=Cc1cc(O)c(O)c(O)c1 gave SI, selectivity index (CC50/EC50) of 1.6

###

# maps each entry to its EC50
- Tested on: HCV subgenomic replicon RNA of genotype 1b strain N (Huh7/Rep-Feo cells)
- protocol-description: Luciferase assay in HCV subgenomic replicon cell line Huh7/Rep-Feo
- Assay type: cell-based, hepatitis C virus
- test-context: Hepatitis C virus, Huh-7; Huh7/Rep-Feo, subgenome, strain N (1b), 72 h; read-out: EC50, fifty percent effective concentration based on the inhibition of HCV replication
Answer with a number only, understood to be in µM.

Please review the following examples before continuing.
O=C(/C=C/c1ccc(O)c(O)c1)O[C@@H]1C[C@](O)(C(=O)O)C[C@@H](O)[C@H]1O | 103
CCCCCCCCOC(=O)/C=C/c1ccc(O)c(OC)c1 | 10.2
O=C(O)/C=C/c1ccc(O)c(O)c1 | 36.6

Turning now to a further record.
Record O=C(/C=C/c1ccc(O)c(O)c1)O[C@H](Cc1ccc(O)c(O)c1)C(=O)O . Reported EC50: 110

###

- System: HCV subgenomic replicon RNA of genotype 1b strain N (Huh7/Rep-Feo cells)
- protocol-description: Luciferase assay in HCV subgenomic replicon cell line Huh7/Rep-Feo
- Format: cell-based, hepatitis C virus
- test-context: Huh7/Rep-Feo, strain N (1b)
We begin with a simple list: items and their reported SI, selectivity index (CC50/EC50).

# example entries with known answers
O=C(/C=C/c1ccc(O)c(O)c1)O[C@@H]1C[C@](O)(C(=O)O)C[C@@H](O)[C@H]1O | >3.1
O=C(O)/C=C/c1ccc(O)c(O)c1 | >8.7

Now examine the next entry.
For O=C(/C=C/c1ccc(O)c(O)c1)O[C@H](Cc1ccc(O)c(O)c1)C(=O)O the compound record lists SI, selectivity index (CC50/EC50) as >2.9

###

Recorded measurements of pEC50, one per entry
- System: HCV subgenomic replicon RNA of genotype 1b strain N (Huh7/Rep-Feo cells)
- protocol-description: Luciferase assay in HCV subgenomic replicon cell line Huh7/Rep-Feo
- Format: cell-based, hepatitis C virus
- test-context: Hepatitis C virus, Huh-7; Huh7/Rep-Feo, subgenome, strain N (1b), 72 h; read-out: EC50, fifty percent effective concentration based on the inhibition of HCV replication
pEC50 is a log-scale quantity: -log10 of the concentration expressed in molar.

Solved entries (count: 2):
CCCCCCCCOC(=O)/C=C/c1ccc(O)c(O)c1 | 5.57
CCCCCCCCOC(=O)/C=C/c1ccc(OC)c(O)c1 | 4.71

Data point: CCCCCCCCOC(=O)C=Cc1cc(O)c(O)c(O)c1 ; pEC50 = 4.44
